Where these numbers come from: ChEMBL document CHEMBL1137374

target: Estrogen receptor (Homo sapiens, UniProt P03372)
Sequence (P03372 whole entry): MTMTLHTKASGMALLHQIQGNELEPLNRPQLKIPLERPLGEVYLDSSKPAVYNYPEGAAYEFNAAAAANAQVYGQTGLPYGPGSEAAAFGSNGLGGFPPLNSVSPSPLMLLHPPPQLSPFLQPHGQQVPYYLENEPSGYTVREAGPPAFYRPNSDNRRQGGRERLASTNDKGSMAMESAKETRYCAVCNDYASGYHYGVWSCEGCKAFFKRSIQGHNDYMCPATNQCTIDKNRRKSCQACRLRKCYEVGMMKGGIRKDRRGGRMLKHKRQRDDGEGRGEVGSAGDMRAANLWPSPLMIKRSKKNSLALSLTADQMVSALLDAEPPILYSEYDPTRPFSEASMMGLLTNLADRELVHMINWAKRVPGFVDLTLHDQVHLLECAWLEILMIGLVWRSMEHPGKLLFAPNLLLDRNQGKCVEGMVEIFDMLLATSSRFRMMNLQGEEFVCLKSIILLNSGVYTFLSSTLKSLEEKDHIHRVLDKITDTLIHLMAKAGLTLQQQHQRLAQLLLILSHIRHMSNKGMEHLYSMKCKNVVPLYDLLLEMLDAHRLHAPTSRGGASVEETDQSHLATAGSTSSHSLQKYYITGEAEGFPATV
pKi: −log10 of the molar value.
metric: pKi

Query string: Give the reported pKi for `O=c1cc(C(F)(F)F)c2cc(N(CC(F)(F)F)CC(F)(F)F)ccc2[nH]1` (system: Estrogen receptor (Homo sapiens, UniProt P03372)).
Result string: < 6.00

----------
target: Androgen receptor (Homo sapiens, UniProt P10275)
Sequence (P10275 whole entry): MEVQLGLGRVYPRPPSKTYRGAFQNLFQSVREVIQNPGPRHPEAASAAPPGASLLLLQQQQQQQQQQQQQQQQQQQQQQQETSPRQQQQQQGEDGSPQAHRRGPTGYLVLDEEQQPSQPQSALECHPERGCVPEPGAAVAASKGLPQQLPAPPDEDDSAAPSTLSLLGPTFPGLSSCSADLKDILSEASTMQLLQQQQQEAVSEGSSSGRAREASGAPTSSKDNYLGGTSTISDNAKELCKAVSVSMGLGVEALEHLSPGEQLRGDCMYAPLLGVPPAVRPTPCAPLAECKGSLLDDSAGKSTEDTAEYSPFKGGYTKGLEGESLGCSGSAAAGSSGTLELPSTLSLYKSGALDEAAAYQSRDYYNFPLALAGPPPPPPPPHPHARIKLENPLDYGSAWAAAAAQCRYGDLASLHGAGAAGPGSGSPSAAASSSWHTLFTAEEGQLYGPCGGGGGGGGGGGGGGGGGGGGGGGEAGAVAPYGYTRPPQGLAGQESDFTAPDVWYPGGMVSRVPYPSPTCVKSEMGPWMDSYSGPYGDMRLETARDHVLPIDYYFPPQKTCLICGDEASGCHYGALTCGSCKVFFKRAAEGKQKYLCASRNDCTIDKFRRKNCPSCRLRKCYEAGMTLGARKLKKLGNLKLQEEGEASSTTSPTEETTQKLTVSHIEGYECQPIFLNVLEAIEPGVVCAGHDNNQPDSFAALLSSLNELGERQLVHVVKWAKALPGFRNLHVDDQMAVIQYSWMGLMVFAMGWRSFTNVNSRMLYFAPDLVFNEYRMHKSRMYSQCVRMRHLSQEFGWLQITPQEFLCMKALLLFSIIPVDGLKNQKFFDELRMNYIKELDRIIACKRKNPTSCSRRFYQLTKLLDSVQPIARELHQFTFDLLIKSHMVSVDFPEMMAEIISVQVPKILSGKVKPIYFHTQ
pIC50: −log10 of the molar value.
metric: pIC50

Query string: # input molecule: `Oc1cc(C(F)(F)F)c2cc(N(CC3CC3)CC(F)(F)F)ccc2n1` ; wanted: its pIC50
Result string: < 5.00

----------
biological target: Mineralocorticoid receptor (Homo sapiens)
Sequence (P08235 whole entry): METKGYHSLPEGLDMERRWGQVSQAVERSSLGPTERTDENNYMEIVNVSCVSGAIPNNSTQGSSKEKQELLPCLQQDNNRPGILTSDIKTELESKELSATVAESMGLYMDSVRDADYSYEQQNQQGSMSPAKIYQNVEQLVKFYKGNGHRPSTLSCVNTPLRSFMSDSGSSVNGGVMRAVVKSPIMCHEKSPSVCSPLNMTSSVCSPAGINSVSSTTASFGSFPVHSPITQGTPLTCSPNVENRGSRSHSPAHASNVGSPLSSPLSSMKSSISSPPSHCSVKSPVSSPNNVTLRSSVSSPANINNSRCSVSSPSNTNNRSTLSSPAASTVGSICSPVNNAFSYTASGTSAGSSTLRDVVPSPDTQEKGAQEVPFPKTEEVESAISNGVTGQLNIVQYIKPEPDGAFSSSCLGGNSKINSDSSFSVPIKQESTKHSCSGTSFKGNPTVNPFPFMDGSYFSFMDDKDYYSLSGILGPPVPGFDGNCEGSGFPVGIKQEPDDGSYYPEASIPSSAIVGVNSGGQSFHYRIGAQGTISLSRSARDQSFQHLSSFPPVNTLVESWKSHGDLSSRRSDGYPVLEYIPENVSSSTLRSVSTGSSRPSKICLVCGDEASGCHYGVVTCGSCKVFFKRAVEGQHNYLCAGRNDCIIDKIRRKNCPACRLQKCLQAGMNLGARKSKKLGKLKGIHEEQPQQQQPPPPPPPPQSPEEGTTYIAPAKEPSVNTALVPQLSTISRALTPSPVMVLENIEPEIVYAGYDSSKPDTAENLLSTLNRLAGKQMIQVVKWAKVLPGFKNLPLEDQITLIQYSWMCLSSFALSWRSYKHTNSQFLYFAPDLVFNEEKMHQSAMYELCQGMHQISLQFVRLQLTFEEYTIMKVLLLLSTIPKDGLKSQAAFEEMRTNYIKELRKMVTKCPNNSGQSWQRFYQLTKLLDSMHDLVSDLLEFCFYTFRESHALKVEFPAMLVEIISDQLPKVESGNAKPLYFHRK
metric: Ki

Query string: Give the reported Ki for `O=c1cc(C(F)(F)F)c2cc(N(CC(F)(F)F)CC(F)(F)F)ccc2[nH]1` (system: Mineralocorticoid receptor (Homo sapiens)).
Result string: > 1000 nM

----------
Target: Progesterone receptor (Homo sapiens)
Sequence (P06401 whole entry): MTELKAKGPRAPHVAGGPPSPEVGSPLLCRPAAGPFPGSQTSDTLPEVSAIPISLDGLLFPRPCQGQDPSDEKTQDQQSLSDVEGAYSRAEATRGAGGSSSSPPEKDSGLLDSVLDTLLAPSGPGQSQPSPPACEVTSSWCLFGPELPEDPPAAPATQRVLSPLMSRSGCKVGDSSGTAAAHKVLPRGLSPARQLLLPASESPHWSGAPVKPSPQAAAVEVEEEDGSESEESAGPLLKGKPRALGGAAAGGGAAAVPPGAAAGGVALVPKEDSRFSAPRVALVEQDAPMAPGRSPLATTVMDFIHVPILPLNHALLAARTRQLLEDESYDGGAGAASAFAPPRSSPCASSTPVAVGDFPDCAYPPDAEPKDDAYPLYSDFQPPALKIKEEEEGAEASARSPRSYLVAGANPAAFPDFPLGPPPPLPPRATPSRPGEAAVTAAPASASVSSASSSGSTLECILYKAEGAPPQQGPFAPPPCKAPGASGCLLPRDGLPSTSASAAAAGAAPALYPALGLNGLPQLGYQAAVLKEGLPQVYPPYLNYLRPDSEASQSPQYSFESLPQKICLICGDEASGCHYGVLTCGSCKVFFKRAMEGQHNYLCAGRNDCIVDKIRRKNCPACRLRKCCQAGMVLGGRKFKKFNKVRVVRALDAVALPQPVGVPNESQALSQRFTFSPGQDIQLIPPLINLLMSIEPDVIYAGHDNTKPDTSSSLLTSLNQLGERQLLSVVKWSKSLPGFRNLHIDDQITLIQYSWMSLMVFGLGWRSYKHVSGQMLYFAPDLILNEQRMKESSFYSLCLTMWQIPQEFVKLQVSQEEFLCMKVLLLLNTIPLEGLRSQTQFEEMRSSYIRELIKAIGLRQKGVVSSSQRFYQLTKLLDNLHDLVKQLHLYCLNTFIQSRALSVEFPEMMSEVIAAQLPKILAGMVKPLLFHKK
pKi: −log10 of the molar value.
metric: pKi

Query string: # input compound: `O=c1cc(C(F)(F)F)c2cc(N(CC(F)(F)F)CC(F)(F)F)ccc2[nH]1` ; wanted: its pKi
Result string: < 6.00

----------
target: Androgen receptor (Homo sapiens, UniProt P10275)
metric: pEC50
The meaning of pEC50 here: minus log10 of the concentration in molar units.

Query string: Give the reported pEC50 for `Oc1cc(C(F)(F)F)c2cc(N(CC3CC3)CC(F)(F)F)ccc2n1` (system: Androgen receptor (Homo sapiens, UniProt P10275)).
Result string: 8.55
